Data provenance: the NIST ThermoML archive (doi:10.1021/je300487n)

Test: refractive index (Na D-line) (dimensionless)
Settings: 298.15 K; 101.33 kPa; Liquid; Standard Abbe refractometry
± gives the expanded uncertainty stated by the source.
MEASURED QUANTITY: refractive index

// below: answered compounds
CC(=O)O.CCN(C)C [N,N-dimethylethanamine acetate] = 1.41819 ± 0.00055
CC(=O)[O-].CCCC[N+]1(C)CCCC1 [1-butyl-1-methylpyrrolidinium acetate] = 1.46998 ± 0.00075
CC(=O)[O-].CCn1cc[n+](C)c1 [1-ethyl-3-methylimidazolium acetate] = 1.49992 ± 0.00077
CC(=O)[O-].CCn1cc[nH+]c1 [1-ethyl-1H-imidazolium acetate] = 1.45769 ± 0.00082

Consider the additional compound presented here.
Given CC(=O)[O-].CCCCn1cc[n+](C)c1 [1-butyl-3-methylimidazolium acetate] , state its recorded refractive index. 1.4889 ± 0.00054

---

Below is a list of entries, each paired with its recorded mass density value.
Conditions: 328.15 K; 101.33 kPa; Liquid; Vibrating tube method
Entry rule: numbers only, all in kg/m3.

Solved entries:
CC(=O)[O-].CCCC[N+]1(C)CCCC1 [1-butyl-1-methylpyrrolidinium acetate] = 1003.3
CC(=O)[O-].CCCCn1cc[n+](C)c1 [1-butyl-3-methylimidazolium acetate] = 1034

What does the data say about its mass density? Entry: CC(=O)[O-].CCn1cc[nH+]c1 [1-ethyl-1H-imidazolium acetate] 1008.4

Reported mass density for CC(=O)O.CCN(C)C [N,N-dimethylethanamine acetate] : what is it? 992.9

---

Details: 318.15 K; 101.33 kPa; Liquid; Concentric cylinders viscometry
Catalogue of viscosity readings, one per entry.
Dear colleague, please return just the value in mPa·s, with no unit written.

CC(=O)[O-].CCCCn1cc[n+](C)c1 [1-butyl-3-methylimidazolium acetate] = 86.07
CC(=O)O.CCN(C)C [N,N-dimethylethanamine acetate] = 7.316
CC(=O)[O-].CCCC[N+]1(C)CCCC1 [1-butyl-1-methylpyrrolidinium acetate] = 38.34

As a next step, examine the compound that follows.
Please give the measured viscosity for this compound: CC(=O)[O-].CCn1cc[nH+]c1 [1-ethyl-1H-imidazolium acetate] 3.051

---

Details: 298.15 K; 101.33 kPa; Liquid; Concentric cylinders viscometry
MEASURED QUANTITY: viscosity
// return the numeric value with its unit appended

CC(=O)O.CCN(C)C [N,N-dimethylethanamine acetate] = 13.97 mPa·s

Returns the measured viscosity for the input compound. Input: CC(=O)[O-].CCCC[N+]1(C)CCCC1 [1-butyl-1-methylpyrrolidinium acetate] 106.63 mPa·s

# input compound: CC(=O)[O-].CCn1cc[nH+]c1 [1-ethyl-1H-imidazolium acetate] ; wanted: its viscosity 4.955 mPa·s

For CC(=O)[O-].CCCCn1cc[n+](C)c1 [1-butyl-3-methylimidazolium acetate] , what is its reported viscosity? 297.39 mPa·s

---

Settings: 323.15 K; 101.33 kPa; Liquid; Concentric cylinders viscometry
Entries and their measured viscosity follow.
Give the value in mPa·s but do not write mPa·s after it.

CC(=O)O.CCN(C)C [N,N-dimethylethanamine acetate] = 6.381
CC(=O)[O-].CCCCn1cc[n+](C)c1 [1-butyl-3-methylimidazolium acetate] = 66.82
CC(=O)[O-].CCCC[N+]1(C)CCCC1 [1-butyl-1-methylpyrrolidinium acetate] = 31.1

Now look at this entry.
# get_value(readout='viscosity', item= CC(=O)[O-].CCn1cc[nH+]c1 [1-ethyl-1H-imidazolium acetate] ) 2.75
